test: clinical; settings: human, serum, oral
recorded-endpoint: clearance (mL/min)
Number in mL/min, nothing else.

Qu. Give me measured clearance, please, for this compound: Cc1cn(-c2cc(NC(=O)c3ccc(C)c(Nc4nccc(-c5cccnc5)n4)c3)cc(C(F)(F)F)c2)cn1 [nilotinib]
Ans. 350

###

experiment: clinical; conditions: human, serum, oral
recorded-endpoint: Vd (L)
Number in L, nothing else.

Qu. Give me measured Vd, please, for this compound: Cc1cn(-c2cc(NC(=O)c3ccc(C)c(Nc4nccc(-c5cccnc5)n4)c3)cc(C(F)(F)F)c2)cn1 [nilotinib]
Ans. 58
